target: hCA I (Homo sapiens); assay: stopped-flow CO2 hydrase assay, hCA I
Quantity measured: Ki (µM)
Return type: number; implicit unit µM.

Lab note: need Ki for COc1ccc(-c2c(S(=O)(=O)c3ccccc3)nnn2-c2cccc(S(N)(=O)=O)c2)cc1Br [Compound 10h] on hCA I (Homo sapiens), anyone have it? 8.03

====

molecular target: hCA IX (Homo sapiens, UniProt Q16790)
Entries and their pKi
A value of pKi is the negative decimal logarithm of a concentration given in moles per litre.

Guide cases for pKi, answers given:
Molecule	System under test	pKi
NS(=O)(=O)c1cccc(-n2nnc(S(=O)(=O)c3ccccc3)c2-c2ccccc2)c1 [Compound 10a]	hCA IX (Homo sapiens, UniProt Q16790)	7.59
Cc1ccc(-c2c(S(=O)(=O)c3ccccc3)nnn2-c2cccc(S(N)(=O)=O)c2)cc1 [Compound 10b]	hCA IX (Homo sapiens, UniProt Q16790)	7.67
COc1ccc(-c2c(S(=O)(=O)c3ccccc3)nnn2-c2ccc(S(N)(=O)=O)cc2)cc1Br [Compound 9h]	hCA IX (Homo sapiens, UniProt Q16790)	7.54
NS(=O)(=O)c1ccc(-n2nnc(S(=O)(=O)c3ccccc3)c2-c2ccc([N+](=O)[O-])cc2)cc1 [Compound 9i]	hCA IX (Homo sapiens, UniProt Q16790)	7.49
NS(=O)(=O)c1ccc(-n2nnc(S(=O)(=O)c3ccccc3)c2-c2ccccc2)cc1 [Compound 9a]	hCA IX (Homo sapiens, UniProt Q16790)	7.67

Lab note: need pKi for NS(=O)(=O)c1cccc(-n2nnc(S(=O)(=O)c3ccccc3)c2-c2cccc([N+](=O)[O-])c2)c1 [Compound 10j] on hCA IX (Homo sapiens, UniProt Q16790), anyone have it? 7.57

Lab note: need pKi for COc1ccc(-c2c(S(=O)(=O)c3ccccc3)nnn2-c2cccc(S(N)(=O)=O)c2)cc1Br [Compound 10h] on hCA IX (Homo sapiens, UniProt Q16790), anyone have it? 7.64

Lab note: need pKi for NS(=O)(=O)c1cccc(-n2nnc(S(=O)(=O)c3ccccc3)c2-c2ccc(-c3ccccc3)cc2)c1 [Compound 10k] on hCA IX (Homo sapiens, UniProt Q16790), anyone have it? 7.65

Lab note: need pKi for COc1ccc(-c2c(S(=O)(=O)c3ccccc3)nnn2-c2ccc(S(N)(=O)=O)cc2)cc1 [Compound 9g] on hCA IX (Homo sapiens, UniProt Q16790), anyone have it? 7.60

Lab note: need pKi for NS(=O)(=O)c1ccc(-n2nnc(S(=O)(=O)c3ccccc3)c2-c2ccc(Br)cc2)cc1 [Compound 9e] on hCA IX (Homo sapiens, UniProt Q16790), anyone have it? 7.52

====

Entries and their Ki
biological target: hCA I (Homo sapiens, UniProt P00915); assay: stopped-flow CO2 hydrase assay, hCA I; settings: mean from three assays, stopped-flow technique, errors ± 5–10%
Sequence (P00915 whole entry): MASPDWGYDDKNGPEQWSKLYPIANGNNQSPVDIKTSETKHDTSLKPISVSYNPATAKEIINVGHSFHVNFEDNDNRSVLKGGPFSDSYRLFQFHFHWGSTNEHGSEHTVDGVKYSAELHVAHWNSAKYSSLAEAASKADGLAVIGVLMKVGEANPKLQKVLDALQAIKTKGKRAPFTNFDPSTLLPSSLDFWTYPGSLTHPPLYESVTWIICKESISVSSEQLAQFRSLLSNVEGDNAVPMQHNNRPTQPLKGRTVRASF
Return type: number; implicit unit µM.

Guide cases for Ki, answers given:
Compound	Quantity measured	Numeric readout
NS(=O)(=O)c1ccc(-n2nnc(S(=O)(=O)c3ccccc3)c2-c2ccc(Br)cc2)cc1 [Compound 9e]	Ki	7.84
NS(=O)(=O)c1ccc(-n2nnc(S(=O)(=O)c3ccccc3)c2-c2ccc(Cl)cc2)cc1 [Compound 9d]	Ki	4.63
NS(=O)(=O)c1cccc(-n2nnc(S(=O)(=O)c3ccccc3)c2-c2ccc(Br)cc2)c1 [Compound 10e]	Ki	0.636

I have this compound here, NS(=O)(=O)c1ccc(-n2nnc(S(=O)(=O)c3ccccc3)c2-c2ccc(-c3ccccc3)cc2)cc1 [Compound 9k] , and I need its recorded Ki. 3.54

I have this compound here, NS(=O)(=O)c1cccc(-n2nnc(S(=O)(=O)c3ccccc3)c2-c2ccc(F)cc2)c1 [Compound 10c] , and I need its recorded Ki. 0.454

I have this compound here, NS(=O)(=O)c1cccc(-n2nnc(S(=O)(=O)c3ccccc3)c2-c2ccc(-c3ccccc3)cc2)c1 [Compound 10k] , and I need its recorded Ki. 2.06

I have this compound here, NS(=O)(=O)c1ccc(-n2nnc(S(=O)(=O)c3ccccc3)c2-c2cccc([N+](=O)[O-])c2)cc1 [Compound 9j] , and I need its recorded Ki. 0.0454
